- Test system: CAL-12T
- experiment_notes: relative viability (nuclei count vs DMSO), 5 days (fraction); higher = more cells survive
- condition_context: first compound 2.53 µM
Binarize relative viability at 0.6; below is true, at or above is false.

Req: Confirm or reject: relative viability of O=c1[nH]c2ccccc2n1C1CCN(CCCC(c2ccc(F)cc2)c2ccc(F)cc2)CC1 [Pimozide] + Nc1nc2[nH]cc(CCc3ccc(C(=O)N[C@@H](CCC(=O)O)C(=O)O)cc3)c2c(=O)[nH]1 [Pemetrexed] (partner 0.2 µM) lies strictly below 0.6
Resp: false

Req: Say whether its relative viability is strictly beneath 0.6. Entry: Cc1cnc(-c2cnc(NCCNc3ccc(C#N)cn3)nc2-c2ccc(Cl)cc2Cl)[nH]1 + CC(=O)c1c(C)c2cnc(Nc3ccc(N4CCNCC4)cn3)nc2n(C2CCCC2)c1=O [Palbociclib] (partner 0.5 µM)
Resp: true

Req: State whether 0.6 exceeds relative viability recorded for O=c1[nH]c2ccccc2n1C1CCN(CCCC(c2ccc(F)cc2)c2ccc(F)cc2)CC1 [Pimozide] + CS(=O)(=O)N1CCN(Cc2cc3nc(-c4cccc5[nH]ncc45)nc(N4CCOCC4)c3s2)CC1 [Pictilisib] (partner 1 µM) .
Resp: true

Req: Criterion: relative viability strictly below 0.6. Is it met by Cc1cnc(-c2cnc(NCCNc3ccc(C#N)cn3)nc2-c2ccc(Cl)cc2Cl)[nH]1 + COc1cccc2cc(-c3nc([C@H]4CC[C@H](C(=O)O)CC4)n4ncnc(N)c34)[nH]c12 [OSI-027] (partner 0.5 µM) ?
Resp: true

Req: Below 0.6 on relative viability? Entry Cc1cnc(-c2cnc(NCCNc3ccc(C#N)cn3)nc2-c2ccc(Cl)cc2Cl)[nH]1 + NC(=O)Nc1cc(-c2cccc(F)c2)sc1C(=O)N[C@H]1CCCNC1 [AZD7762] (partner 0.2 µM)
Resp: false

Req: Input Cc1cnc(-c2cnc(NCCNc3ccc(C#N)cn3)nc2-c2ccc(Cl)cc2Cl)[nH]1 + N=C(N)NC(=N)NCCc1ccccc1 [Phenformin] (partner 250 µM) ; condition: relative viability strictly below 0.6. Does it hold?
Resp: true

Req: Report whether reported relative viability is lower than 0.6 (strictly) for O=c1[nH]c2ccccc2n1C1CCN(CCCC(c2ccc(F)cc2)c2ccc(F)cc2)CC1 [Pimozide] + N=C(N)NC(=N)NCCc1ccccc1 [Phenformin] (partner 250 µM)
Resp: true

Req: Does the reported relative viability of Cc1cnc(-c2cnc(NCCNc3ccc(C#N)cn3)nc2-c2ccc(Cl)cc2Cl)[nH]1 + CS(=O)(=O)CCNCc1ccc(-c2ccc3ncnc(Nc4ccc(OCc5cccc(F)c5)c(Cl)c4)c3c2)o1 [Lapatinib] (partner 2 µM) stay below 0.6?
Resp: false

Req: relative viability strictly < 0.6 for this compound? O=c1[nH]c2ccccc2n1C1CCN(CCCC(c2ccc(F)cc2)c2ccc(F)cc2)CC1 [Pimozide] + CC(=O)Nc1cccc(-n2c(=O)n(C3CC3)c(=O)c3c(Nc4ccc(I)cc4F)n(C)c(=O)c(C)c32)c1 [Trametinib] (partner 0.02 µM)
Resp: true

----------
Provide the recorded relative viability for the entries that follow.
- System: NCI-H2087
- experiment_notes: relative viability (nuclei count vs DMSO), 5 days (fraction); higher = more cells survive
- condition_context: first compound 0.006325 µM
Give the figure by itself; no unit, no explanation.

Observed relative viability, NCI-H2087, CC(=O)O[C@@]12CO[C@@H]1C[C@H](O)[C@@]1(C)C(=O)[C@H](O)C3=C(C)[C@@H](OC(=O)[C@H](O)[C@@H](NC(=O)OC(C)(C)C)c4ccccc4)C[C@@](O)([C@@H](OC(=O)c4ccccc4)[C@H]21)C3(C)C [Docetaxel] + CC(=O)Nc1cccc(-n2c(=O)n(C3CC3)c(=O)c3c(Nc4ccc(I)cc4F)n(C)c(=O)c(C)c32)c1 [Trametinib] (partner 0.02 µM) : 0.118

Query CC(=O)O[C@@]12CO[C@@H]1C[C@H](O)[C@@]1(C)C(=O)[C@H](O)C3=C(C)[C@@H](OC(=O)[C@H](O)[C@@H](NC(=O)OC(C)(C)C)c4ccccc4)C[C@@](O)([C@@H](OC(=O)c4ccccc4)[C@H]21)C3(C)C [Docetaxel] + C[C@@H](Oc1cc(-c2cnn(C3CCNCC3)c2)cnc1N)c1c(Cl)ccc(F)c1Cl [Crizotinib] (partner 1 µM) on NCI-H2087; relative viability returned: 0.182

Bench note, NCI-H2087: entry CC(=O)O[C@@]12CO[C@@H]1C[C@H](O)[C@@]1(C)C(=O)[C@H](O)C3=C(C)[C@@H](OC(=O)[C@H](O)[C@@H](NC(=O)OC(C)(C)C)c4ccccc4)C[C@@](O)([C@@H](OC(=O)c4ccccc4)[C@H]21)C3(C)C [Docetaxel] + CCNC(=O)c1noc(-c2cc(C(C)C)c(O)cc2O)c1-c1ccc(CN2CCOCC2)cc1 [Luminespib] (partner 0.01 µM) , its relative viability = 0.168

Reported relative viability (NCI-H2087) for entry CC(=O)O[C@@]12CO[C@@H]1C[C@H](O)[C@@]1(C)C(=O)[C@H](O)C3=C(C)[C@@H](OC(=O)[C@H](O)[C@@H](NC(=O)OC(C)(C)C)c4ccccc4)C[C@@](O)([C@@H](OC(=O)c4ccccc4)[C@H]21)C3(C)C [Docetaxel] + O=C(c1cc(Cc2n[nH]c(=O)c3ccccc23)ccc1F)N1CCN(C(=O)C2CC2)CC1 [Olaparib] (partner 8 µM) is 0.125

----------
- System: NCI-H358
- experiment_notes: relative viability (nuclei count vs DMSO), 5 days (fraction); higher = more cells survive
- condition_context: first compound 0.04 µM
Task for the reader: assign each of the following compounds its reported relative viability.
Please reply with the value in numeric form only.

Form field relative viability, entry Cc1sc2c(c1C)C(c1ccc(Cl)cc1)=N[C@@H](CC(=O)OC(C)(C)C)c1nnc(C)n1-2 [JQ1] + Nc1ncn([C@H]2C[C@H](O)[C@@H](CO)O2)c(=O)n1 [Decitabine] (partner 2 µM) : 0.212

Cc1sc2c(c1C)C(c1ccc(Cl)cc1)=N[C@@H](CC(=O)OC(C)(C)C)c1nnc(C)n1-2 [JQ1] + N=C(N)NC(=N)NCCc1ccccc1 [Phenformin] (partner 250 µM) yielded relative viability of 0.355

// field: relative viability; key: Cc1sc2c(c1C)C(c1ccc(Cl)cc1)=N[C@@H](CC(=O)OC(C)(C)C)c1nnc(C)n1-2 [JQ1] + O=C(CCCCCCC(=O)Nc1ccccc1)NO [Vorinostat] (partner 1 µM) ; value = 0.662

What the record says about Cc1sc2c(c1C)C(c1ccc(Cl)cc1)=N[C@@H](CC(=O)OC(C)(C)C)c1nnc(C)n1-2 [JQ1] + Cc1nc(NC(=O)N2CCC[C@H]2C(N)=O)sc1-c1ccnc(C(C)(C)C(F)(F)F)c1 [Alpelisib] (partner 2 µM) : relative viability is 0.761

Record Cc1sc2c(c1C)C(c1ccc(Cl)cc1)=N[C@@H](CC(=O)OC(C)(C)C)c1nnc(C)n1-2 [JQ1] + CCNC(=O)c1noc(-c2cc(C(C)C)c(O)cc2O)c1-c1ccc(CN2CCOCC2)cc1 [Luminespib] (partner 0.01 µM) . Reported relative viability: 0.305

----------
- System: NCI-H322M
- experiment_notes: relative viability (nuclei count vs DMSO), 5 days (fraction); higher = more cells survive
- condition_context: first compound 0.02 µM
measured_endpoint: relative viability
Respond with the number and no other words.

Sample CC(=O)O[C@@]12CO[C@@H]1C[C@H](O)[C@@]1(C)C(=O)[C@H](O)C3=C(C)[C@@H](OC(=O)[C@H](O)[C@@H](NC(=O)OC(C)(C)C)c4ccccc4)C[C@@](O)([C@@H](OC(=O)c4ccccc4)[C@H]21)C3(C)C [Docetaxel] + Cc1nc(NC(=O)N2CCC[C@H]2C(N)=O)sc1-c1ccnc(C(C)(C)C(F)(F)F)c1 [Alpelisib] (partner 2 µM) , system: NCI-H322M. Its relative viability is 0.181

Field relative viability (NCI-H322M), entry CC(=O)O[C@@]12CO[C@@H]1C[C@H](O)[C@@]1(C)C(=O)[C@H](O)C3=C(C)[C@@H](OC(=O)[C@H](O)[C@@H](NC(=O)OC(C)(C)C)c4ccccc4)C[C@@](O)([C@@H](OC(=O)c4ccccc4)[C@H]21)C3(C)C [Docetaxel] + CC1(C)CCC(c2ccc(Cl)cc2)=C(CN2CCN(c3ccc(C(=O)NS(=O)(=O)c4ccc(N[C@H](CCN5CCOCC5)CSc5ccccc5)c(S(=O)(=O)C(F)(F)F)c4)cc3)CC2)C1 [Navitoclax] (partner 0.5 µM) : 0.306

Recorded relative viability for CC(=O)O[C@@]12CO[C@@H]1C[C@H](O)[C@@]1(C)C(=O)[C@H](O)C3=C(C)[C@@H](OC(=O)[C@H](O)[C@@H](NC(=O)OC(C)(C)C)c4ccccc4)C[C@@](O)([C@@H](OC(=O)c4ccccc4)[C@H]21)C3(C)C [Docetaxel] + Cc1nc(Nc2ncc(C(=O)Nc3c(C)cccc3Cl)s2)cc(N2CCN(CCO)CC2)n1 [Dasatinib] (partner 0.075 µM) on NCI-H322M was 0.346
